Where do the numbers come from? From patent US20260242735A1.

- test-system: human CD33 K309A (human, UniProt P20138 18-364)
- Sequence (P20138 18-364 K309A limits assumed): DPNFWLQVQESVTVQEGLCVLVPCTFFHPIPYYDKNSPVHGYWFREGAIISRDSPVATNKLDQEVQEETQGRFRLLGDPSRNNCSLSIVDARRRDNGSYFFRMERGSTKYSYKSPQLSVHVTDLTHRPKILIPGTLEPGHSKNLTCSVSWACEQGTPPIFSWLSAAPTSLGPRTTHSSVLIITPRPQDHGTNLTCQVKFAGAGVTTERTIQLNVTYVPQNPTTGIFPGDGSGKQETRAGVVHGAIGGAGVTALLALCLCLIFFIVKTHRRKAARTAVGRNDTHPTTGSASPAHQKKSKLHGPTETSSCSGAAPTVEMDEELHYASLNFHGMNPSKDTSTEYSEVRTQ
- experimental-details: alanine scan, flow cytometry, HEK293-T;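 also: antibody binding to each alanine-substituted CD33 mutant expressed transiently in HEK293-T, read as fluorescence minus background, mean of duplicates, relative to wild-type CD33 set as 100%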
property: Mean % WT Binding (% WT binding)
# unit: % WT binding | format: bare number

// returns reported Mean % WT Binding for input Refmab #1 (antibody, V domains shown, The alanine scan used IgG or Fab; also called hP67.6) VH: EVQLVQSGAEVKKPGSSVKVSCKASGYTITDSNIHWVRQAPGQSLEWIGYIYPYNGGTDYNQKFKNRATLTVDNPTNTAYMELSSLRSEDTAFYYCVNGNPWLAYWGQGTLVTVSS VL: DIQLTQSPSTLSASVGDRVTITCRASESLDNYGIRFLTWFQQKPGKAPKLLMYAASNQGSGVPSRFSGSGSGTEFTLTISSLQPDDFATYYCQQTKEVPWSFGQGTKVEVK 92.7

# iterate: Refmab #3 (antibody, V domains shown, The alanine scan used IgG or Fab) VH: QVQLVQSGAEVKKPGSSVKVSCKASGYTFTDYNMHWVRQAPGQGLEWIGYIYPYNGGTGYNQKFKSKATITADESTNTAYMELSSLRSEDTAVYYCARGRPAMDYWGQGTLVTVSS VL: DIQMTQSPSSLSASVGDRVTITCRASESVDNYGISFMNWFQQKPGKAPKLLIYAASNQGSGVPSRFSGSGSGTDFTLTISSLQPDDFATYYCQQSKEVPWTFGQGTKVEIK 92

Ok, now Refmab #4 (antibody, V domains shown, The alanine scan used IgG or Fab) VH: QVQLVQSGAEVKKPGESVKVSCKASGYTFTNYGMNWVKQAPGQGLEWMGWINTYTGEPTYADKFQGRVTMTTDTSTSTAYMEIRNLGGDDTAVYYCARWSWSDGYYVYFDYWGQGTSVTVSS VL: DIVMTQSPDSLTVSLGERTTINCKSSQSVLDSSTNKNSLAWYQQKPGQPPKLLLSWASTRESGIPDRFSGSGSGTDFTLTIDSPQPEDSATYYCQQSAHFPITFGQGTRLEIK 99.9

And Refmab #2 (antibody, V domains shown, The alanine scan used IgG or Fab) VH: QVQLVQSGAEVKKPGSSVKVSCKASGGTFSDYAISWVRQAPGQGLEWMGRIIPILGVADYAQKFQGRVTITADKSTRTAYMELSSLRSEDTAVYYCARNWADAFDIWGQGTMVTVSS VL: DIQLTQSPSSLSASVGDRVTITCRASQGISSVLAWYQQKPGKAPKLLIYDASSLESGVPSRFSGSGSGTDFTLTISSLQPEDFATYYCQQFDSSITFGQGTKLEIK ? 111
